Assay: orientative acute toxicity (LD50) in mice
Details: mouse, in vivo, single oral administration, assessed on seventh day
compounds and their reported LD50 at 168 h

compound="N#CC1(CO)Oc2ccccc2-c2ccccc21 (stereo not drawn) [FCE 20518]" result="> 800 mg/kg"
compound="O=C(O)C1(CO)Oc2ccccc2-c2ccccc21 (stereo not drawn) [FCE 20561]" result="> 800 mg/kg"
compound="CCN(CC)CCOC(=O)C1Oc2ccccc2-c2ccccc21 (stereo not drawn) [FCE 21849]" result="400 to 800 mg/kg"

Short answer for CC1(C#N)Oc2ccccc2-c2ccccc21 (stereo not drawn) [FCE 20519, 6H,6-cyano-6-methyl-dibenzo[b,d]pyran] : LD50 at 168 h was > 800 mg/kg

For reference, reported LD50 at 168 h for O=C(O)CC1Oc2ccccc2-c2ccccc21 (stereo not drawn) [FCE 20881, 6H,6-carboxymethyl-dibenzo[b,d]pyran] stands at 400 to 800 mg/kg

Lab note: CCOC(=O)C1Oc2ccccc2-c2ccccc21 (stereo not drawn) [FCE 20521, 6H,6-ethoxycarbonyl-dibenzo[b,d]pyran] gave LD50 at 168 h of > 800 mg/kg
